- Target entity: Peroxisome proliferator-activated receptor gamma (Homo sapiens)
- Sequence (P37231 whole entry): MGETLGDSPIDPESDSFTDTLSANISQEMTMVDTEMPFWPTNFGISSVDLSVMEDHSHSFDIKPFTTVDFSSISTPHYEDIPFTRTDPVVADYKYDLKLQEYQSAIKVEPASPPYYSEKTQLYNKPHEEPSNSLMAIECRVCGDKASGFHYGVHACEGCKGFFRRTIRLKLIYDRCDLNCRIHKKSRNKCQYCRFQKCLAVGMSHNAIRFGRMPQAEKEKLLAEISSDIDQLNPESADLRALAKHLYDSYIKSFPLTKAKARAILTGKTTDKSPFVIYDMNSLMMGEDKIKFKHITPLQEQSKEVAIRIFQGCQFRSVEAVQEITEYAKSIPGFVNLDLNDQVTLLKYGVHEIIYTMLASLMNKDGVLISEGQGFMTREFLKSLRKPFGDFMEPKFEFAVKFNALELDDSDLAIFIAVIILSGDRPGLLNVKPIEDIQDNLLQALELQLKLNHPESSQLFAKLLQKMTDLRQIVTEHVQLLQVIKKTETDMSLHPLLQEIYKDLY
- Protocol description: Inhibition of human PPARgamma receptor by ligand displacement assay
pIC50: −log10 of the molar value.
Reported pIC50 values are given for each entry in this list.

Known results for molecules:
>>> measured("O=C(NCCS(=O)(=O)c1ccc(C(F)(F)F)cn1)c1ccc(Cl)cc1Cl")
"< 5.00"
>>> measured("O=C(NCCS(=O)(=O)c1ccc(C(F)(F)F)cn1)c1ccc(Cl)cc1")
"< 5.00"
>>> measured("O=C(NCCS(=O)(=O)c1ccc(C(F)(F)F)cn1)c1ccc(Br)cc1F")
"< 5.00"

Okay, next one:
// query // fetch pIC50; item: O=C(NCCS(=O)(=O)c1ccccn1)c1ccc(Cl)cc1 ; system: Peroxisome proliferator-activated receptor gamma (Homo sapiens)
// result < 5.00

====

- Target entity: Peroxisome proliferator-activated receptor delta (Homo sapiens, UniProt Q03181)
- Protocol description: Inhibition of human PPARdelta receptor by ligand displacement assay
# IC50 per record follows
Give the value, in units of nM, as a plain number.

>>> measured("O=C(NCCCS(=O)(=O)c1ccc(C(F)(F)F)cn1)c1ccc(OC(F)(F)F)cc1")
1260
>>> measured("O=C(NCCS(=O)(=O)c1ccc(C(F)(F)F)cn1)c1ccc(Cl)cc1Cl")
158

Then there is this compound:
// query Output reported IC50 of the compound O=C(NCCS(=O)(=O)c1ccc(C(F)(F)F)cn1)c1ccc(C2CCCCC2)cc1 on Peroxisome proliferator-activated receptor delta (Homo sapiens, UniProt Q03181).
// result 1000

====

- Protocol description: Oral bioavailability in C57BL/6 mouse at 10 mg/kg
- Type: ADME, organism-based
- Condition summary: in vivo
Property name: bioavailability (%)
Give your result in % as a bare value.

// query Give a short answer stating reported bioavailability for O=C(NCCS(=O)(=O)c1ccc(C(F)(F)F)cn1)c1ccc(Cl)cc1 .
// result 77

====

- Protocol description: AUC (0 to infinity) in C57BL/6 mouse at 10 mg/kg, po
- Format: ADME, organism-based
- Set-up: dose 10 mg/kg, route oral, time infinity
- Condition summary: plasma
Property name: AUC(0-inf)

// query Answer with reported AUC(0-inf) of O=C(NCCS(=O)(=O)c1ccc(C(F)(F)F)cn1)c1ccc(Cl)cc1
// result 3340 ng·h/mL

====

- Target entity: Peroxisome proliferator-activated receptor delta (Homo sapiens)
- Sequence (Q03181 whole entry): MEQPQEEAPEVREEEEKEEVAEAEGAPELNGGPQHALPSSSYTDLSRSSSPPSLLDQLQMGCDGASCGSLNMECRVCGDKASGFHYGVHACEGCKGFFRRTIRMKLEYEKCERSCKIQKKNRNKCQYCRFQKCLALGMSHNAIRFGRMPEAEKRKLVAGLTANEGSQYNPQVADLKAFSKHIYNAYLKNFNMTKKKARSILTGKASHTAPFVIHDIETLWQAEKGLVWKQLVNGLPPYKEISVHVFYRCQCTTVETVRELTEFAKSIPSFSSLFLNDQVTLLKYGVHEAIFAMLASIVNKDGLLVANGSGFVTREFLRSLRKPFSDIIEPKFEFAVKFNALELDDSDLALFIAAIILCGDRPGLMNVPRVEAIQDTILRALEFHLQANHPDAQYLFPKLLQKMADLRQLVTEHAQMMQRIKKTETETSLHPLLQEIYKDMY
- Protocol description: Inhibition of human PPARdelta receptor by ligand displacement assay
Each entry below carries its recorded IC50.

>>> measured("O=C(NCCS(=O)(=O)c1ccccn1)c1ccc(Cl)cc1")
"> 10 µM"

// query Consider the compound Cc1ccc(S(=O)(=O)CCNC(=O)c2ccc(Cl)cc2)nc1 tested on Peroxisome proliferator-activated receptor delta (Homo sapiens); state its IC50.
// result > 10 µM

// query Return reported IC50 for target or system Peroxisome proliferator-activated receptor delta (Homo sapiens), item O=C(NCCCS(=O)(=O)c1ccc(C(F)(F)F)cn1)c1ccc(Cl)cc1 .
// result > 10 µM
